readout: melting point

1. CCn1c(Oc2ccc(F)cc2)nnc1[C@@H](C)N(CC(=O)O)S(=O)(=O)c1ccc(Cl)c(Cl)c1 [Compound 684]
169.5 to 171.5 °C
2. CCn1c(Oc2ccc(F)cc2)nnc1[C@@H](C)NS(=O)(=O)c1ccc(F)c(Cl)c1 [Compound 103]
146.5 to 147.5 °C
3. CCn1c(Oc2ccc(N(C)C)cc2)nnc1[C@@H](C)NS(=O)(=O)c1ccc(Cl)c(Cl)c1 [Compound 43]
182.5 to 185 °C
4. CCn1c(Oc2ccc3ccncc3c2)nnc1[C@@H](C)NS(=O)(=O)c1ccc(Cl)c(Cl)c1 [Compound 54]
192 to 193 °C
5. CCn1c(Oc2cccc(N)c2)nnc1[C@@H](C)NS(=O)(=O)c1ccc(Cl)c(Cl)c1 [Compound 82]
142 to 145 °C

query: Provide measured melting point value, entry: C[C@@H](NS(=O)(=O)c1ccc(Cl)c(Cl)c1)c1nnc(Oc2ccc(F)cc2)n1C1CC1 [Compound 124]
result: 178.5 to 180 °C

query: Please give measured melting point of the following entry: CCn1c(Oc2cccc(N3CCCC3)c2)nnc1[C@@H](C)NS(=O)(=O)c1ccc(Cl)c(Cl)c1 [Compound 79]
result: 190 to 195 °C

query: Indicate the recorded melting point value for this compound: CCn1c(Oc2ccc3cc[nH]c3c2)nnc1[C@@H](C)NS(=O)(=O)c1ccc(Cl)c(Cl)c1Cl [Compound 134]
result: 108.5 to 114.5 °C

query: Supply melting point value. Item: CCn1c(Oc2ccc3sc(C)nc3c2)nnc1[C@@H](C)NS(=O)(=O)c1ccc(Cl)c(Cl)c1 [Compound 46]
result: 247 to 250 °C

query: Report measured melting point; entry is CCn1c(Oc2ccc(OCc3ccccc3)cc2)nnc1[C@@H](C)NS(=O)(=O)c1ccc(Cl)c(Cl)c1 [Compound 23]
result: 173 to 176 °C

====

# system-tested: human Edg-1 (S1P1) (Homo sapiens)
# Construct: expressed in transfected cells; host or cells: HEK-293
# Sequence (P21453 whole entry): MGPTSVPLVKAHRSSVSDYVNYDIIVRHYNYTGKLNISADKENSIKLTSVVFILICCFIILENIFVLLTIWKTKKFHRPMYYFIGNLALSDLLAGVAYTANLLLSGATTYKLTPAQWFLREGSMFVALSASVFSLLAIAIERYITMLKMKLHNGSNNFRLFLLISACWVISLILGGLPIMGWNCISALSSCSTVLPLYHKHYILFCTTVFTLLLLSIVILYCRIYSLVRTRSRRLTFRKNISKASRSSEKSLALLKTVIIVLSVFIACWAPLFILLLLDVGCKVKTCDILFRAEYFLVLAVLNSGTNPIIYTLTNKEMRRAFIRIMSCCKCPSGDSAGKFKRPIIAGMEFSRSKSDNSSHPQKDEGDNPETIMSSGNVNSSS
# method: S1P1 binding assay: inhibition of [33P]-S1P binding to membrane fraction of HEK-293 cells transferred with the human Edg-1 (S1P1) gene
# conditions: test compound 10 μM; inhibition of [33P]-S1P binding, membrane fraction
readout: inhibition at 10 µM (%)
Numbers only here, please. The scale is %.

1) CCn1c(Oc2cccc(N3CCN(C)CC3)c2)nnc1[C@@H](C)NS(=O)(=O)c1ccc(Br)cc1
109
2) CCn1c(Oc2cccc(N3CCN(C)CC3)c2)nnc1[C@@H](C)NS(=O)(=O)c1ccc(Br)cc1C
104
3) CCn1c(Oc2cccc(N3CCN(C)CC3)c2)nnc1[C@@H](C)NS(=O)(=O)c1ccc(Br)cc1Br
100

Shift focus to the following entry.
query: Enter recorded inhibition at 10 µM with human Edg-1 (S1P1) (Homo sapiens) for CCn1c(Oc2cccc(N3CCN(C)CC3)c2)nnc1[C@@H](C)NS(=O)(=O)c1cc(F)c(F)c(F)c1 here.
result: 109

====

readout: melting point

Below, each entry is followed by its recorded melting point result.
1. CCn1c(Oc2ccc(F)cc2)nnc1[C@@H](C)NS(=O)(=O)c1ccc(Br)c(C)c1
187.5 to 188.5 °C
2. CCn1c(Oc2ccc(F)c(N3CCN(C)CC3)c2)nnc1[C@@H](C)NS(=O)(=O)c1ccc2c(Cl)cccc2c1
169.5 to 170.5 °C
3. CCn1c(Oc2cccc(N3CCC(O)CC3)c2)nnc1[C@@H](C)NS(=O)(=O)c1ccc(Cl)c(Cl)c1
167.5 to 169.5 °C
4. CCn1c(Oc2cccc(NS(C)(=O)=O)c2)nnc1[C@@H](C)NS(=O)(=O)c1ccc2ccccc2c1
141 to 143 °C

query: Please give measured melting point of the following entry: CCn1c(Oc2cccc(Cl)c2)nnc1[C@@H](C)NS(=O)(=O)c1ccc(Cl)c(Cl)c1
result: 145 to 148 °C

query: Identify melting point associated with the compound C[C@@H](NS(=O)(=O)c1ccc(Cl)c(Cl)c1)c1nnc(Oc2cccc(N3CCN(C)CC3)c2)n1C1CC1
result: 162 to 165 °C

query: Supply recorded melting point for CCn1c(Oc2ccc3ncccc3c2)nnc1[C@@H](C)NS(=O)(=O)c1ccc(Cl)c(Cl)c1 here.
result: 178 to 179 °C
